Target: T1, VTG
T1 chain: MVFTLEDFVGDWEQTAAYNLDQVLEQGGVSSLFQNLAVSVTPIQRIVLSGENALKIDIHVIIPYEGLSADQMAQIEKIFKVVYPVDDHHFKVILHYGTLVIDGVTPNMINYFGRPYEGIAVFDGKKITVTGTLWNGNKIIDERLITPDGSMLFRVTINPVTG
Assay: luminescence complementation
Conditions: chains peptide; modification not given
Readout Name: pKd
The meaning of pKd here: minus log10 of the concentration in molar units.

**Query** # query: pKd of entry GWRLFKKISN [NLpep82]
**Result** 6.56

Each recorded value in this set is attributed to patent US20200292534A1.
